Where do these numbers come from? They come from the supplement of paper PMC9112550.

system: Escherichia coli TOP10; test: shrunken log2 fold change of peptide-encoding DNA abundance (4.5 h post-induction vs induction); higher = less antimicrobial activity (less host growth inhibition); details: time post-induction: 4.5 h; library: site-saturation at positions 5, 18, 19, 20
# if value of shrunken log2 fold change reaches -0.06, tag fulfilled; if it stays below, tag not fulfilled

Q. // inclusive: shrunken log2 fold change at least -0.06? input: `RRIRGRPPRLPRPRPRPCDFPRP`
A. fulfilled

Q. What do you have for `RRIRWRPPRLPRPRPRPTRIPRP` ?
A. fulfilled

Q. What do you have for `RRIRYRPPRLPRPRPRPDENPRP` ?
A. fulfilled

Q. What do you have for `RRIRYRPPRLPRPRPRPWDAPRP` ?
A. not fulfilled

Q. What do you have for `RRIRIRPPRLPRPRPRPSILPRP` ?
A. not fulfilled

Q. What do you have for `RRIRDRPPRLPRPRPRPLGSPRP` ?
A. fulfilled

Q. What do you have for `RRIRHRPPRLPRPRPRPPYPPRP` ?
A. fulfilled

Q. What do you have for `RRIRARPPRLPRPRPRPQWRPRP` ?
A. fulfilled

Q. What do you have for `RRIRSRPPRLPRPRPRPKGCPRP` ?
A. fulfilled

Q. What do you have for `RRIRARPPRLPRPRPRPGHCPRP` ?
A. fulfilled

====

system: Escherichia coli TOP10; assay: shrunken log2 fold change of peptide-encoding DNA abundance (4.5 h post-induction vs induction); higher = less antimicrobial activity (less host growth inhibition); conditions: time post-induction: 4.5 h; library: site-saturation at positions 5, 18, 19, 20
Would you mind sorting the entries by shrunken log2 fold change according to these classes? category 1: < -0.06; category 2: ≥ -0.06 and < 0.06; category 3: ≥ 0.06

Illustrative cases are given below, each with its answer.
biopolymer.sequence | assigned.class
RRIRCRPPRLPRPRPRPNLDPRP | category 1
RRIRNRPPRLPRPRPRPCFHPRP | category 1
RRIRRRPPRLPRPRPRPCFFPRP | category 3

Q. The entry to classify is `RRIRSRPPRLPRPRPRPCCNPRP` ; which class holds it?
A. category 2

Q. What do you have for `RRIRQRPPRLPRPRPRPALQPRP` ?
A. category 3

Q. What do you have for `RRIRHRPPRLPRPRPRPPTKPRP` ?
A. category 3

====

tested on: Escherichia coli TOP10; test: shrunken log2 fold change of peptide-encoding DNA abundance (4.5 h post-induction vs induction); higher = less antimicrobial activity (less host growth inhibition); conditions: time post-induction: 4.5 h; library: site-saturation at positions 5, 18, 19, 20
# if value of shrunken log2 fold change reaches 0.5, tag yes; if it stays below, tag no

biopolymer.sequence | assigned.class
RRIRHRPPRLPRPRPRPTHWPRP | yes

Q. // inclusive: shrunken log2 fold change at least 0.5? input: `RRIRMRPPRLPRPRPRPPFFPRP`
A. yes

Q. What do you have for `RRIRCRPPRLPRPRPRPYEEPRP` ?
A. no

Q. What do you have for `RRIRSRPPRLPRPRPRPTDQPRP` ?
A. no

Q. What do you have for `RRIRPRPPRLPRPRPRPLLGPRP` ?
A. no

====

tested on: Escherichia coli TOP10; assay: shrunken log2 fold change of peptide-encoding DNA abundance (4.5 h post-induction vs induction); higher = less antimicrobial activity (less host growth inhibition); conditions: time post-induction: 4.5 h; library: site-saturation at positions 5, 18, 19, 20;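 also: peptides expressed intracellularly from a pBAD plasmid library in pooled LB shake-flask culture, induced with 0.3% L-arabinose, DNA abundance read by NGS, three biological replicates, DESeq2 with apeglm shrinkage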
outcome.measure: shrunken log2 fold change
Respond numerically, and do not add a unit to the figure.

biopolymer.sequence | shrunken log2 fold change
RRIRHRPPRLPRPRPRPFMQPRP | -0.348
RRIRCRPPRLPRPRPRPYMHPRP | -0.31
RRIRRRPPRLPRPRPRPHLNPRP | -0.194
RRIRFRPPRLPRPRPRPRKIPRP | 0.0429

Q. I have this sequence here, `RRIRFRPPRLPRPRPRPFPYPRP` , and I need its recorded shrunken log2 fold change.
A. -0.445

Q. What do you have for `RRIRIRPPRLPRPRPRPCKTPRP` ?
A. -0.168

Q. What do you have for `RRIRVRPPRLPRPRPRPWCGPRP` ?
A. 0.0506

Q. What do you have for `RRIRYRPPRLPRPRPRPETLPRP` ?
A. -0.0879

Q. What do you have for `RRIRWRPPRLPRPRPRPWWFPRP` ?
A. 0.0217

Q. What do you have for `RRIRLRPPRLPRPRPRPWDPPRP` ?
A. -0.125

Q. What do you have for `RRIRVRPPRLPRPRPRPFPWPRP` ?
A. -0.0892

Q. What do you have for `RRIRERPPRLPRPRPRPLHQPRP` ?
A. -0.0505
